assay.comment: AUC in female rat at 100 mg/kg, po after 7 days
Format: ADME, organism-based
Design: dose 100 mg/kg, route oral
condition.parameters: plasma
metric.name: AUC at 168 h (µg·h/mL)

chemical.string: Cc1cc(Cn2c(=O)c(C3=CS(=O)(=O)c4cc(NS(C)(=O)=O)ccc4N3)c(O)c3cc(F)ccc32)ccc1F
metric.name: AUC at 168 h
u: µg·h/mL
test.result: 0.299

---

assay.comment: AUC in male rat at 500 mg/kg, po after 7 days
Format: ADME, organism-based
Design: dose 500 mg/kg, route oral
condition.parameters: plasma

chemical.string: Cc1cc(Cn2c(=O)c(C3=CS(=O)(=O)c4cc(NS(C)(=O)=O)ccc4N3)c(O)c3cc(F)ccc32)ccc1F
AUC at 168 h, ng·h/mL: 1910

---

assay.comment: AUC in dog at 1 mg/kg, iv
Type: ADME, organism-based, Canis lupus familiaris
Parameters: dose 1 mg/kg, route intravenous
condition.parameters: plasma

chemical.string: Cc1cc(Cn2c(=O)c(C3=CS(=O)(=O)c4cc(NS(C)(=O)=O)ccc4N3)c(O)c3cc(F)ccc32)ccc1F
AUC: 954 ng·h/mL

---

assay.comment: Cmin (24 hrs) in male rat at 500 mg/kg, po after 1 day
Type: ADME, organism-based
Set-up: dose 500 mg/kg, route oral
condition.parameters: in vivo, read-out: Cmin

chemical.string: Cc1cc(Cn2c(=O)c(C3=CS(=O)(=O)c4cc(NS(C)(=O)=O)ccc4N3)c(O)c3cc(F)ccc32)ccc1F
concentration at 24 h / ng/mL: 11.3

---

assay.comment: AUC (0 to 24 hrs) in male rat at 500 mg/kg, po after 1 day
Format: ADME, organism-based
Parameters: time < 24 hr, dose 500 mg/kg, route oral
condition.parameters: plasma
metric.name: AUC(0-t) at 24 h (ng·h/mL)

chemical.string: Cc1cc(Cn2c(=O)c(C3=CS(=O)(=O)c4cc(NS(C)(=O)=O)ccc4N3)c(O)c3cc(F)ccc32)ccc1F
metric.name: AUC(0-t) at 24 h
test.result: 821

---

target.under.test: serum albumin (Homo sapiens, UniProt P02768)
Sequence (P02768 whole entry): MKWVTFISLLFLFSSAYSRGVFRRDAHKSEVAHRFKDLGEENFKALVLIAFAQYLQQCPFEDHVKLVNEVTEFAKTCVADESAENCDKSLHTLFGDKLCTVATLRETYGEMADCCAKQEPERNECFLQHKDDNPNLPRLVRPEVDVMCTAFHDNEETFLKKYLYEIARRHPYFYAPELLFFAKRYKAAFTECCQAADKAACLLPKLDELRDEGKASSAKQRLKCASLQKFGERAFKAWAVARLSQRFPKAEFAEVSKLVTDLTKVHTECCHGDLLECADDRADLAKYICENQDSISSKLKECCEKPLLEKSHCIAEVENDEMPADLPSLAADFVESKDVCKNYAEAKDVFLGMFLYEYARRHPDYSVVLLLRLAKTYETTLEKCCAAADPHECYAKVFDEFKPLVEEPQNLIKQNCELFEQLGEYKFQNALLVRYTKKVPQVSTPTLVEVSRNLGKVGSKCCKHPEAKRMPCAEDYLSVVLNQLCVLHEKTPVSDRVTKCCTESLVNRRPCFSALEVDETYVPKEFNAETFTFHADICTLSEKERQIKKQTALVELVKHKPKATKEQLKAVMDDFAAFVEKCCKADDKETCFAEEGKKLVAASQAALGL
assay.comment: Binding affinity to human serum albumin
Assay type: ADME
condition.parameters: read-out: PB (converted)

chemical.string: Cc1cc(Cn2c(=O)c(C3=CS(=O)(=O)c4cc(NS(C)(=O)=O)ccc4N3)c(O)c3cc(F)ccc32)ccc1F
fraction unbound: 0.002

---

Test system: Hepatitis C virus
assay.comment: Antiviral activity against HCV genotype 1b isolate con1 infected in human 2209-23 cells assessed as inhibition of [3H]thymidine incorporation into DNA by scintillation proximity assay in presence of 40% human serum albumin
Type: functional, organism-based, Hepacivirus hominis
condition.parameters: isolate Con1, 2209-23
pEC50: −log10 of the molar value.

chemical.string: Cc1cc(Cn2c(=O)c(C3=CS(=O)(=O)c4cc(NS(C)(=O)=O)ccc4N3)c(O)c3cc(F)ccc32)ccc1F
pEC50: 7.06

chemical.string: CC(C)(C)CCn1c(=O)c(C2=CS(=O)(=O)c3cc(NS(C)(=O)=O)ccc3N2)c(O)c2cc(F)ccc21
pEC50: 6.62

chemical.string: CS(=O)(=O)Nc1ccc2c(c1)S(=O)(=O)C=C(c1c(O)c3ccccc3n(Cc3ccc(F)cc3)c1=O)N2
pEC50: 6.27

chemical.string: CS(=O)(=O)Nc1ccc2c(c1)S(=O)(=O)C=C(c1c(O)c3cc(F)ccc3n(Cc3ccncc3)c1=O)N2
pEC50: 6.16

chemical.string: CS(=O)(=O)Nc1ccc2c(c1)S(=O)(=O)C=C(c1c(O)c3cc(F)ccc3n(Cc3ccccc3)c1=O)N2
pEC50: 6.39

Cited source for all entries: ChEMBL document CHEMBL1137771
